Data origin: patent US8183292B2

Measurement Kind: melting point

For orientation, consider the following solved cases.
> print(dat)
                                   compound  experimental.result
1  CC1(C)[C@H]2C[C@@H](C(=O)O)[C@H](N)[C@@H]1C2 [Compound 29]        250 to 252 °C
2  CCOC(=O)[C@H]1C[C@H]2C[C@@H]([C@H]1N(Cc1ccccc1)C(=O)Nc1ccc(Cl)cc1)C2(C)C [Compound 48]        202 to 205 °C
3  COC(=O)N(C1c2ccccc2-c2ccccc21)[C@H]1[C@H](C(=O)O)C[C@H]2C[C@@H]1C2(C)C [Compound 30]        155 to 157 °C
4  CCOC(=O)[C@H]1C[C@H]2C[C@@H]([C@H]1NC(=S)Nc1cccc(OC)c1)C2(C)C [Compound 44]        132 to 135 °C
5  CCOC(=O)[C@@H]1C[C@H]2C[C@@H]([C@H]1N(Cc1ccccc1)C(=S)Nc1cccc(OC)c1)C2(C)C [Compound 52]        110 to 111 °C
6  CNC(=O)[C@H]1[C@@H](NC(=O)OC(C)(C)C)C[C@H]2C[C@H]1C2(C)C [Compound 12]        104 to 105 °C

[Q] // lookup melting point for COC(=O)N(C1c2ccccc2-c2ccccc21)[C@H]1[C@@H](C(=O)O)C[C@H]2C[C@@H]1C2(C)C [Compound 18]
[A] 160 to 162 °C

====

The entries below are paired with their reported melting point.

> print(dat)
                                        smi  experimental.result
1  CC(C)(C)OC(=O)N1C(=O)[C@H]2C[C@H]3C[C@@H]([C@H]21)C3(C)C          64 to 66 °C
2  CC1(C)[C@H]2C[C@@H]3C(=O)N[C@@H]3[C@@H]1C2          68 to 72 °C
3  CC1(C)[C@H]2C[C@H](C(=O)O)[C@H](N)[C@@H]1C2               270 °C

Okay, next one:
[Q] // lookup melting point for "CCOC(=O)[C@@H]1C[C@H]2C[C@@H]([C@H]1NC(=O)Nc1ccc(Cl)cc1)C2(C)C"
[A] 167 to 169 °C

====

The entries below are paired with their reported Vrel = effect related to Verapamil.
# Test system: P-glycoprotein
# Assay Overview: Reversal of multidrug resistance: rhodamine 123 accumulation in human mdr1 transfected L5178 mouse T-cell lymphoma cells (flow cytometry)
# Assay type: cell-based
# Assay Context: Table 2; 4 μg/ml; Verapamil at 10 μg/ml
Lab note: write the figure by itself, no unit.

For orientation, consider the following solved cases.
> print(dat)
                                   compound  experimental.result
1  CCOC(=O)[C@@H]1C[C@H]2C[C@@H]([C@H]1NC(=S)NCCc1ccc(OC)c(OC)c1)C2(C)C [Compound 51]                 2.70
2  CCOC(=O)[C@@H]1C[C@@H]2C[C@H]([C@@H]1NC(=S)Nc1cccc(OC)c1)C2(C)C [Compound 54]                 0.48
3  CCOC(=O)[C@H](Cc1ccccc1)NC(=O)[C@@H]1C[C@@H]2C[C@H]([C@@H]1NC(=O)OC(C)(C)C)C2(C)C [Compound 38]                 0.79

Okay, next one:
[Q] // lookup Vrel = effect related to Verapamil for CCOC(=O)[C@@H]1C[C@H]2C[C@@H]([C@H]1NC(=S)Nc1cccc(OC)c1)C2(C)C [Compound 49]
[A] 0.56

====

Measurement Kind: melting point

For orientation, consider the following solved cases.
> print(dat)
                                        smi  measurement.kind  experimental.result
1  CCOC(=O)[C@H]1C[C@H]2C[C@@H]([C@H]1NC(=O)Nc1ccc(Cl)cc1)C2(C)C     melting point        170 to 171 °C
2  CCOC(=O)[C@@H]1C[C@H]2C[C@@H]([C@H]1NC(=S)Nc1cccc(OC)c1)C2(C)C     melting point        118 to 120 °C
3  CCOC(=O)[C@H]1C[C@H]2C[C@@H]([C@H]1NC(=S)NCCc1ccc(OC)c(OC)c1)C2(C)C     melting point        125 to 126 °C

Okay, next one:
[Q] // lookup melting point for "CCOC(=O)[C@H]1C[C@H]2C[C@@H]([C@H]1N(Cc1ccccc1)C(=S)Nc1cccc(OC)c1)C2(C)C"
[A] 109 to 112 °C

====

The entries below are paired with their reported Survival (%) [c = 128 μM].
# Tested on: MRC-5 human fibroblast cell lines
# Assay Overview: Cytotoxicity on MRC-5 human fibroblast cell lines (Alamar Blue/resazurine, 24 h)
# Type: cell-based
# Assay Context: MRC-5 cells, 24 hours incubation, 1% DMSO
Note: unit % is implicit; provide only the numeric part.

> print(dat)
                                        smi  experimental.result
1  CCOC(=O)[C@@H]1C[C@H]2C[C@@H]([C@H]1NC(=S)Nc1cccc(OC)c1)C2(C)C                250.9

[Q] // lookup Survival (%) [c = 128 μM] for "CCOC(=O)[C@H]1C[C@@H]2C[C@H]([C@@H]1NC(=O)Nc1ccc(Cl)cc1)C2(C)C"
[A] 116.8

[Q] // lookup Survival (%) [c = 128 μM] for "CCOC(=O)[C@H]1C[C@H]2C[C@@H]([C@H]1NC(=S)Nc1cccc(OC)c1)C2(C)C"
[A] 128.1

====

The entries below are paired with their reported R (activity ratio, fluorescence).
# Test system: P-glycoprotein
# Assay Overview: Reversal of multidrug resistance: rhodamine 123 accumulation in human mdr1 transfected L5178 mouse T-cell lymphoma cells (flow cytometry)
# Assay type: cell-based
# Assay Context: Table 2; 4 μg/ml; rhodamine 123
# Description: L5178 mouse T-cell lymphoma cells were transfected with pHa MDR1/A retrovirus, by the method as described by J. L. Weaver [J. L. Weaver, G. Szabó, P. S. Pine, M. M. Gottesmann, S. Goldenberg and A. Aszalos: The effect of ion channel blockers, immunosuppressive agents and other drugs on the activity of the multidrug transporter. Int. […] Mdr-1-expressing cell lines were selected by culturing the transfected cells with 60 ng/mL of colchicine to maintain the expression of the MDR phenotype. […]
Lab note: write the figure by itself, no unit.

For orientation, consider the following solved cases.
> print(dat)
                                   molecule   target.system  experimental.result
1  CCOC(=O)[C@H]1C[C@H]2C[C@@H]([C@H]1NC(=S)Nc1cccc(OC)c1)C2(C)C [Compound 44]  P-glycoprotein                 2.02
2  CCOC(=O)[C@@H]1C[C@H]2C[C@@H]([C@H]1NC(=S)NCCc1ccc(OC)c(OC)c1)C2(C)C [Compound 51]  P-glycoprotein                13.29
3  CCOC(=O)[C@H]1C[C@H]2C[C@@H]([C@H]1NC(=O)Nc1ccc(Cl)cc1)C2(C)C [Compound 45]  P-glycoprotein                 7.46
4  CCOC(=O)[C@@H]1C[C@H]2C[C@@H]([C@H]1NC(=S)Nc1cccc(OC)c1)C2(C)C [Compound 49]  P-glycoprotein                 2.77
5  CCOC(=O)[C@H](Cc1ccccc1)NC(=O)[C@@H]1C[C@@H]2C[C@H]([C@@H]1NC(=O)OC(C)(C)C)C2(C)C [Compound 38]  P-glycoprotein                 2.33
6  CCOC(=O)[C@H]1C[C@H]2C[C@@H]([C@H]1NC(=S)NCCc1ccc(OC)c(OC)c1)C2(C)C [Compound 46]  P-glycoprotein                 4.02

[Q] // lookup R (activity ratio, fluorescence) for CCOC(=O)[C@@H]1C[C@@H]2C[C@H]([C@@H]1NC(=S)Nc1cccc(OC)c1)C2(C)C [Compound 54]
[A] 2.37

[Q] // lookup R (activity ratio, fluorescence) for CCOC(=O)[C@H]1C[C@@H]2C[C@H]([C@@H]1NC(=S)Nc1cccc(OC)c1)C2(C)C [Compound 55]
[A] 3.07

====

# Tested on: P-glycoprotein
# Assay Overview: Reversal of multidrug resistance: rhodamine 123 accumulation in human mdr1 transfected L5178 mouse T-cell lymphoma cells (flow cytometry)
# Format: cell-based
# Assay Context: Table 3; 4 μg/ml; rhodamine 123
The entries below are paired with their reported R = ratio of fluorescence and activity.
Lab note: write the figure by itself, no unit.

For orientation, consider the following solved cases.
> print(dat)
                                   molecule  experimental.result
1  CCOC(=O)[C@@H]1C[C@H]2C[C@@H]([C@H]1NC(=O)Nc1ccc(Cl)cc1)C2(C)C [Compound 50]                 1.87
2  CCOC(=O)[C@@H]1C[C@H]2C[C@@H]([C@H]1N(Cc1ccccc1)C(=S)Nc1cccc(OC)c1)C2(C)C [Compound 52]                21.87
3  CCOC(=O)[C@H](Cc1ccccc1)NC(=O)[C@H]1C[C@H]2C[C@@H]([C@H]1NC(=O)OC(C)(C)C)C2(C)C [Compound 17]                 23.1

[Q] // lookup R = ratio of fluorescence and activity for CCOC(=O)[C@H]1C[C@@H]2C[C@H]([C@@H]1NC(=O)Nc1ccc(Cl)cc1)C2(C)C [Compound 56]
[A] 1.57

[Q] // lookup R = ratio of fluorescence and activity for CCOC(=O)[C@H]1C[C@H]2C[C@@H]([C@H]1N(Cc1ccccc1)C(=S)Nc1cccc(OC)c1)C2(C)C [Compound 47]
[A] 34.76

[Q] // lookup R = ratio of fluorescence and activity for CC1(C)[C@@H]2C[C@H](C(=O)O)[C@@H](NC(=O)OCC3c4ccccc4-c4ccccc43)[C@H]1C2 [Compound 41]
[A] 0.86
